# Test system: A375 multi-cell spheroids with HUVEC/MSC, viability
# experiment notes: Anticancer human tumor A375 cell line growth inhibition [GQUAD];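 note: spheroids exposed to compounds for seven days before readout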
# test context: second compound 0.1 µM; first compound 0.00316 µM; stronger effect = lower value
property name: viability, T/C (%)
Report only the number, with the unit % understood.

viability, T/C lookup needed for CCc1c2c(nc3ccc(O)cc13)-c1cc3c(c(=O)n1C2)COC(=O)[C@]3(O)CC + CN(C)c1ccc(Nc2c3ccc(NC(=O)CCN4CCCC4)cc3nc3cc(NC(=O)CCN4CCCC4)ccc23)cc1 , thanks.
14.4

Please answer likewise for Cn1ncnc1[C@H]1c2n[nH]c(=O)c3cc(F)cc(c23)N[C@@H]1c1ccc(F)cc1 + CN(C)c1ccc(Nc2c3ccc(NC(=O)CCN4CCCC4)cc3nc3cc(NC(=O)CCN4CCCC4)ccc23)cc1
102

Please answer likewise for Cc1[nH]c2ccccc2c1CCNCc1ccc(/C=C/C(=O)NO)cc1 + Cc1[nH]c2ccc(F)cc2c1-c1nc2c3cccnc3c3ncccc3c2[nH]1
109

Please answer likewise for CCc1c2c(nc3ccc(O)cc13)-c1cc3c(c(=O)n1C2)COC(=O)[C@]3(O)CC + Cc1cnc(CNC(=O)c2c(=O)c3ccc(N4CCCN(C)CC4)nc3n3c2sc2ccccc23)cn1
14.8

Please answer likewise for CC[C@@]1(O)C(=O)OCc2c1cc1n(c2=O)Cc2cc3c(CN(C)C)c(O)ccc3nc2-1 + CN(C)c1ccc(Nc2c3ccc(NC(=O)CCN4CCCC4)cc3nc3cc(NC(=O)CCN4CCCC4)ccc23)cc1
105

Please answer likewise for CC[C@@]1(O)C(=O)OCc2c1cc1n(c2=O)Cc2cc3c(CN(C)C)c(O)ccc3nc2-1 + Cc1cnc(CNC(=O)c2c(=O)c3ccc(N4CCCN(C)CC4)nc3n3c2sc2ccccc23)cn1
64.3

---

For each record, write down the corresponding pIC50.
# System: A375 multi-cell spheroids with HUVEC/MSC, viability
# experiment notes: Anticancer human tumor A375 cell line growth inhibition [GQUAD];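 note: spheroids exposed to compounds for seven days before readout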
# test context: curve of first compound; second compound 3.16 µM
Please note pIC50 is a logarithmic value: minus log10 of concentration in mol/L. Answer with that number alone.

pIC50 lookup needed for CC(C)(O)C1CCC(Nc2ccc3ncc(-c4cccc(C(F)(F)F)c4)n3n2)CC1 (stereo not given) + CN(C)c1ccc(Nc2c3ccc(NC(=O)CCN4CCCC4)cc3nc3cc(NC(=O)CCN4CCCC4)ccc23)cc1 , thanks.
5.00

Please answer likewise for COc1cccc2c1C(=O)c1c(O)c3c(c(O)c1C2=O)CC(O)(C(=O)CO)CC3OC1CC(N)C(O)C(C)O1 (stereo not given) + Cc1[nH]c2ccc(F)cc2c1-c1nc2c3cccnc3c3ncccc3c2[nH]1
6.54

---

# Tested on: A375 multi-cell spheroids with HUVEC/MSC, viability
# experiment notes: Anticancer human tumor A375 cell line growth inhibition [GQUAD]; active = viability on the fitted dose curve at most 10% of control; inactive = the rest;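 note: spheroids exposed to compounds for seven days before readout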
# test context: second compound 0.316 µM; first compound 3.16 µM
# From the text: DNA G-quadruplex Stabilizer Agents in Combinations in Complex Spheroids A high-throughput screen of multi-cell type tumor spheroids was designed to identify active combinations of DNA G-quadruplex stabilizer agents and targeted small molecules. […] Compounds. […] If the clinical Cmax for an agent had not been determined, the highest concentration tested was 10 microM. […]
Result category, one only: TRUE for active, FALSE for inactive

Give the logged outcome of this assay for the following molecule: COc1cc(C2c3cc4c(cc3C(OC3OC5COC(C)OC5C(O)C3O)C3COC(=O)C23)OCO4)cc(OC)c1O (stereo not drawn) + Cc1[nH]c2ccc(F)cc2c1-c1nc2c3cccnc3c3ncccc3c2[nH]1
FALSE

Please answer likewise for O=C(NO)c1cnc(N2CCN(S(=O)(=O)c3ccc4ccccc4c3)CC2)nc1 + Cc1cnc(CNC(=O)c2c(=O)c3ccc(N4CCCN(C)CC4)nc3n3c2sc2ccccc23)cn1
TRUE

Please answer likewise for COc1ncnc(C2CC2)c1-c1ncc2cnn(Cc3ccc(-c4nc(C(F)(F)F)cn4C(C)C)cc3)c2n1 + Cc1cnc(CNC(=O)c2c(=O)c3ccc(N4CCCN(C)CC4)nc3n3c2sc2ccccc23)cn1
FALSE
